Value source: the nanobody polyreactivity screen of Harvey et al. (2022)

Test: yeast display, Sf9 membrane polyspecificity reagent, FACS + sequencing; frameworks hold sequencing errors
Endpoint label: polyreactivity (PSR sort gate)

Consider the reported polyreactivity (PSR sort gate) for these sequences:
Sequence content: QVQLVESGGGLVQAGGSLRLSCAASGIIFVINAMGWYRQAPGKERELVATITGSGTTNYADSVKGRFTISRDNAKNTVYLHMNSLKPEDTAVYYCARDDTEYARTGAYDYWGQGTQVTVSS
polyreactivity (PSR sort gate): low polyreactivity
//
Sequence content: QVQLVESGGGLVQAGGSLRLSCAASGSTFWHYVMGWYRQAPGKERELVAAISNGGRTNYADSVKGRFTISRDNAKNTVYLHMKSMKPEVTAVYYCAARRRVSYHLYGYWGQGTQVTVSS
polyreactivity (PSR sort gate): high polyreactivity
//
Sequence content: QVQLVESGGGLVQAGGSLRLSCAASGSTFWFYAMGWYRQAPGKERELVAAISRSSGSTYYADSVKGRFTISRDNAKNTVYLQMNSLKPEDTAVYYCAKGWSSVPTQYDYWGQGTQVTVSS
polyreactivity (PSR sort gate): low polyreactivity
//
Sequence content: QVQLVESGGGLVQAGGSLRLSCAACGFTFTIYAMGWYRQAPGKERELVATISGRAGRTYYADSVKGRFTISRDNAKNTVYLQMNSLKPEDTAVYYCTAGQWRYPGLYYYWGQGTQVTVSS
polyreactivity (PSR sort gate): high polyreactivity
//
Sequence content: PVQLVESGGGLVQAGGSLRLSCAASGSTFLYSAMGWYRQAPGKERELVAGISAAGGSSYYADAVKGRFTISRDNAKNTVYIQMNSLKPEDTAVYYCNATRVVIRHSYDYWGQGTQVTVSS
polyreactivity (PSR sort gate): high polyreactivity
//
Sequence content: QVQLVESGGGLVQAGGSLRLSCAASGSTFVYYAMGWYRQAPGKERELVAAINRSGTRTYYADSVKGRFTISRDNAKNTVYLQMNSLKPEDTAVYYCAKAVQGKYGYWGQGTQVTVSS
polyreactivity (PSR sort gate): high polyreactivity
//
Sequence content: QVQLVESGGGLVQAGGRLRLSCAASGSTSTLYAMGWYRQAPGKERELVAAISKSGGRTYYADSVKGRFTSSRDNAKNTVDLQMNSLKPEDTAVYYCAALAVYPRRFDYWGQGTQVTVSS
polyreactivity (PSR sort gate): high polyreactivity
//
Sequence content: QVQLVESGGGLVQAGGSLRLSCAASGSTFRHYAMGWYRQAPGKERELVAVISWGGTSTYYADSVKGRFTISRDNAKNTVYLQMNSLKPEDTAVYYCAVKYAYPYAGVSAIRYYYWGQGTQVTVSS
polyreactivity (PSR sort gate): low polyreactivity
//
Sequence content: QVQLVESGGGLDQAGGSLRLSCAASGSTFPYYAMGWYRQAPGKERELVARISYRGGRTYYADSVKGRFTISRDNAKNTVYLQMNSLKAEDTAVYYCAADRWVYYHSTRYDYWGQGTQVTVSS
polyreactivity (PSR sort gate): high polyreactivity
//
Sequence content: QVQLVESGGGLVQAGGSLRLSCDASGSIFRGYAMGWYRQAPGKEREFVAAISKRSGSTYYADSVKGRFTISRDNAKNSVYLQMNSLKPEDTAVYYCAKERVAAAGGYWGQGTQVTVSS
polyreactivity (PSR sort gate): high polyreactivity

# input Recorded polyreactivity (PSR sort gate) of QVQLVESCGGLVQAGGSLRLSCAASGSTIVSNAMGWNRQAPGKERDLVAAITSGGTTNYADSVKGRFTISRDNAKNTVYLQMISLKPEETAVYYCAKRETVYYVNHPFTYSHDYCGQGTQVTVSS , please.
# output low polyreactivity
